Target: T1, AP3-AA
T1 chain: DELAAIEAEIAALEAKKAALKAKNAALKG
Assay: two-hybrid library CCmax;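 note: natural log of median RNA to DNA barcode read ratio; higher means stronger binding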
Settings: mean of both orientations
Classify by measured interaction score: label 1 if it is equal to or exceeds -2, label 0 if it is smaller.

Query :: Say whether DELAAIEAELAAEEAENAALEAEAAALEG [AP1-AA] shows interaction score of -2 or more.
Result :: label 1

Query :: Please tell me: is the binder DKLAAIKAKLAANKAKKAALKAKAAALKG [AP2-AA] at or over -2 in terms of interaction score?
Result :: label 0

Query :: Hi, just wondering whether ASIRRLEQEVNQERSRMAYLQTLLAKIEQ [4H_BCR] shows interaction score of -2 or higher.
Result :: label 1

Query :: Does interaction score meet or surpass -2 for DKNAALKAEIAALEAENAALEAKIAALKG [4H3606-AA] ?
Result :: label 1

Query :: Check if interaction score >= -2 (inclusive). Item: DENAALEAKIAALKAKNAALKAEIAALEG [4H1401-AA]
Result :: label 1
